# System: KB
# Test Summary: Cytotoxicity against human KB cells after 2 days
# Type: functional
# Test Context: 48 h, read-out: ED50 (the source's name)
// reported EC50 for each item listed
Express your answer in µg/mL, writing the number without its unit.

Illustrative cases are given below, each with its answer.
COc1cc2c(c(OC)c1OC)-c1ccc(SC)c(=O)cc1[C@@H](N(C)C)CC2.O=C(O)CCC(=O)O :: 0.12
COc1cc2c(c(OC)c1OC)-c1ccc(OC)c(=O)cc1[C@@H](NC(C)=O)CC2 [COLCHICINE] :: 0.0038
CCCN([C@H]1CCc2cc(OC)c(OC)c(OC)c2-c2ccc(SC)c(=O)cc21)S(=O)(=O)c1ccccc1[N+](=O)[O-] :: 0.96

Turning now to a further molecule:
Request: GET /values?readout=EC50&item= CCN([C@H]1CCc2cc(OC)c(OC)c(OC)c2-c2ccc(SC)c(=O)cc21)S(=O)(=O)c1ccccc1[N+](=O)[O-]
Result: 0.13
